The measurements presented in this section are drawn from PubChem BioAssay (NCI).

system: SF-539 CNS; test: NCI-60 one-dose screen, 48 h (100 = growth as untreated, 0 = no growth, -100 = all killed); conditions: 10 µM unless noted
This is part of a sample that, as a whole, favours compounds with a hit. Of some 83,000 tested, about 20% had one in any assay.
# maps each entry to its growth
Supply the numeric figure in %, leaving out any unit text.

State, for SF-539 CNS, measured growth of the molecule listed here: COc1ccc(NC(N)=NCCCOc2ccc(F)cc2)cc1
71.7

The record that follows has no growth shown yet.
State, for SF-539 CNS, measured growth of the molecule listed here: CC(C)c1ccc(Nc2ccc3c(OCCCN4CCN(C)CC4)cccc3n2)cc1
73.5

====

tested on: LOX IMVI melanoma; assay: NCI-60 one-dose screen, 48 h; details: 10 µM unless noted
About 83,000 compounds went through this panel and 20% of them were active in at least one assay; those are over-represented in the sample as a whole. Calls of active or inactive are those of the source. Rule for the calls: active = growth percent below 10; inactive = the rest.
// classify into active, inactive

// known answers, use as guide
# fetch the recorded call for Cc1nc2ccc(Cl)cn2c1-c1nnc(SCc2ccc([N+](=O)[O-])cc2)o1 here
inactive

# fetch the recorded call for N#C/C(=C\c1ccc([N+](=O)[O-])s1)c1nc2cc(Br)ccc2s1 here
active

# fetch the recorded call for OCc1cnccc1NCCCOc1ccccc1 here
inactive

# fetch the recorded call for Nc1n[nH]c2cccc(C#Cc3cccc(C(=O)Nc4cc(CN5CCOCC5)cc(C(F)(F)F)c4)c3)c12 here
active

# fetch the recorded call for O=C(Cc1ccccc1)NNc1nc(Cl)nc(N2CCN(C(c3ccccc3)c3ccccc3)CC2)n1 here
inactive

Now for another entry.
# fetch the recorded call for OCc1cnccc1NCCCCOc1ccc(Oc2ccccc2)cc1 here
inactive

====

system: A549/ATCC NSCLC; assay: NCI-60 one-dose screen, 48 h (100 = growth as untreated, 0 = no growth, -100 = all killed); details: 10 µM unless noted
This is part of a sample that, as a whole, favours compounds with a hit. Of some 83,000 tested, about 20% had one in any assay.
OBSERVATION TYPE: growth (%)
Supply the numeric figure in %, leaving out any unit text.

Some compounds with recorded growth:
State, for A549/ATCC NSCLC, measured growth of the compound listed here: O=C(Nc1ccc(NC(=O)c2cc(=O)[nH]c3ccccc23)cc1)Nc1cccc(Cl)c1
93.5

State, for A549/ATCC NSCLC, measured growth of the compound listed here: CC(C)N1C(=O)S/C(=C2/SC(=O)N(C(C)C)C2=O)C1=O
101

State, for A549/ATCC NSCLC, measured growth of the compound listed here: COc1cccc2c1c1nc3cc(C)c(C)cc3nc1n2CCN(C)C
10.6

State, for A549/ATCC NSCLC, measured growth of the compound listed here: C=C(C)[C@@H]1CC[C@]2(C(=O)N3CCN(C)CC3)CC[C@]3(C)[C@H](CC[C@@H]4[C@@]5(C)CC[C@H](OCCC#N)C(C)(C)[C@@H]5CC[C@]43C)[C@@H]12
80

The record that follows has no growth shown yet.
State, for A549/ATCC NSCLC, measured growth of the compound listed here: COc1ccc(C(=O)CC#N)cc1
104

====

system: KM12 colon; test: NCI-60 one-dose screen, 48 h; details: 10 µM unless noted
Compounds without any hit were thinned out: in the full panel of roughly 83,000, 20% have a hit. Calls of active or inactive are those of the source. The calls were made as follows: active = growth percent below 10; inactive = the rest.
// classify into true (active), false (inactive)

// known answers, use as guide
# fetch the recorded call for Cn1c(N2NC(=O)C(N=Nc3ccc(S(N)(=O)=O)cc3)C2=O)nc(-c2ccco2)c(C#N)c1=O (stereo not drawn) here
false

# fetch the recorded call for COc1ccc2[nH]c(O)c(/C=c3/cc4c(c(-c5ccc(F)cc5)n3)=Nc3ccccc3-4)c2c1 here
false

# fetch the recorded call for COc1cc(C=O)ccc1OC1OC(COC(C)=O)C(OC(C)=O)C(OC(C)=O)C1OC(C)=O (stereo not drawn) here
false

# fetch the recorded call for CC(=O)[C@@H]1CC[C@]2(C(N)=O)CC[C@]3(C)[C@H](CC[C@@H]4[C@@]5(C)CCCNC(C)(C)[C@@H]5CC[C@]43C)[C@@H]12 here
false

# fetch the recorded call for CN(C)c1ccc(C2C(C#N)=C(/N=C/c3ccccc3)Oc3c2ccc2ccccc32)cc1 (stereo not drawn) here
false

---
# fetch the recorded call for COc1ccc(-c2nc(S(=O)(=O)c3ccccc3)c(S(=O)CC(=O)N3CCC(C)CC3)o2)cc1 (stereo not drawn) here
false

# fetch the recorded call for N/C(=N\C(N)=N\c1nc2ccccc2s1)c1cnccn1 here
true

# fetch the recorded call for O=C(/C=C/c1ccc(Cl)cc1)c1ccc(NC(=O)N2CCN(c3cc4c(cc3F)c(=O)c(C(=O)O)cn4C3CC3)CC2)cc1 here
false

====

system: LOX IMVI melanoma; assay: NCI-60 one-dose screen, 48 h (100 = growth as untreated, 0 = no growth, -100 = all killed); settings: 10 µM unless noted
This is part of a sample that, as a whole, favours compounds with a hit. Of some 83,000 tested, about 20% had one in any assay.
# maps each entry to its growth
Supply the numeric figure in %, leaving out any unit text.

Could you please provide reported growth for O=C(CNCCN1CCOCC1)N1c2cccc3cccc(c23)N(C(=O)CNCCN2CCOCC2)C1c1cn(-c2ccccc2)nc1-c1cccc([N+](=O)[O-])c1 ? Thanks!
53.9

Could you please provide reported growth for CCOC(=O)C1=C(C)NC(SCc2cc(=O)oc3ccc(F)cc23)=N[C@@H]1c1cccc2ccccc12 ? Thanks!
99.9

Could you please provide reported growth for N#C/C(=C\c1c(-c2ccccc2)[nH]c2ccccc12)C(=O)c1ccc(Cl)cc1 ? Thanks!
44.4

Could you please provide reported growth for O=C(/C(=C/c1ccc([N+](=O)[O-])cc1)SCc1ccc(F)cc1)c1ccc(F)cc1 ? Thanks!
32

Could you please provide reported growth for Oc1ccc(OCCOc2ccc(O)cc2)cc1 ? Thanks!
36.4

Could you please provide reported growth for O=C(/C(=C\c1ccc([N+](=O)[O-])cc1)S(=O)Cc1ccc(F)cc1)c1ccc(F)cc1 (configuration not stated) ? Thanks!
-52.1

Could you please provide reported growth for COc1ccc(/C=C/c2nc(Nc3ccc(S(=O)(=O)Nc4nc(C)cc(C)n4)cc3)c3ccccc3n2)cc1 ? Thanks!
26.3

Could you please provide reported growth for O=Cc1ccc(-c2cn3ccnc3c(-c3ccc4ncn(Cc5ccccc5)c4c3)n2)cc1 ? Thanks!
53.1

Could you please provide reported growth for Oc1ccc(C(c2ccc(O)cc2)c2ccc(Br)cn2)cc1 ? Thanks!
-12.2

Could you please provide reported growth for N#Cc1c(NCc2ccccc2I)sc2c1CCCCC2 ? Thanks!
91.1

Could you please provide reported growth for CC(=O)[C@@H]1CC[C@]2(C(N)=O)CC[C@]3(C)[C@H](CC[C@@H]4[C@@]5(C)CCCNC(C)(C)[C@@H]5CC[C@]43C)[C@@H]12 ? Thanks!
84.4

Could you please provide reported growth for COc1cc(C=O)ccc1OC1OC(COC(C)=O)C(OC(C)=O)C(OC(C)=O)C1OC(C)=O (configuration not stated) ? Thanks!
103

Could you please provide reported growth for COc1ccc(-c2nc3sccn3c2/C=C/C(=O)c2ccc3c(c2)OCO3)cc1 ? Thanks!
38.4

Could you please provide reported growth for COc1cc(-c2csc(NC(=O)c3cc(F)cc(C(F)(F)F)c3)n2)cc(OC)c1OC ? Thanks!
27

====

system: COLO 205 colon; assay: NCI-60 one-dose screen, 48 h (100 = growth as untreated, 0 = no growth, -100 = all killed); conditions: 10 µM unless noted
Compounds without any hit were thinned out: in the full panel of roughly 83,000, 20% have a hit.
OBSERVATION TYPE: growth (%)
Supply the numeric figure in %, leaving out any unit text.

Some molecules with recorded growth:
State, for COLO 205 colon, measured growth of the molecule listed here: CSc1nc2sc3cccc(Cl)c3n2c(=N)c1C#N
56.1

State, for COLO 205 colon, measured growth of the molecule listed here: CC(=O)O[C@H]1Cc2c([nH]c3ccccc23)[C@@H](c2ccc(Cl)cc2)N1C(=O)CCNC(C)(C)C
53.7

State, for COLO 205 colon, measured growth of the molecule listed here: CC(C)=CCC[C@](C)(O)[C@H]1CC[C@]2(C)[C@@H]1CC[C@@H]1[C@@]3(C)C/C(=C/c4ccccc4)C(=O)C(C)(C)[C@@H]3CC[C@]12C
99.9

---
State, for COLO 205 colon, measured growth of the molecule listed here: O=C(CCN1CCCC1)Nc1ccc2c(NCCc3ccccc3)c3ccccc3nc2c1
-37.5

State, for COLO 205 colon, measured growth of the molecule listed here: COc1ccc(NC(=O)c2cc(NCc3cc(O)ccc3O)ccc2O)cc1
113

State, for COLO 205 colon, measured growth of the molecule listed here: O=C(/C(=C/c1ccc([N+](=O)[O-])cc1)SCc1ccc(F)cc1)c1ccc(F)cc1
94.7

State, for COLO 205 colon, measured growth of the molecule listed here: Oc1ccc(OCCOc2ccc(O)cc2)cc1
108

State, for COLO 205 colon, measured growth of the molecule listed here: NC(=S)N1N=C(c2ccccc2)CC1c1cn(-c2ccccc2)nc1-c1ccc(OCc2ccccc2)cc1 (centres undefined)
115

State, for COLO 205 colon, measured growth of the molecule listed here: CC1(C)NCCC[C@]2(C)[C@H]3CC(=O)[C@H]4[C@@H]5C[C@](C)(CO)CC[C@]5(C)CC[C@@]4(C)[C@]3(C)CC[C@@H]12
94.2
